Just for reference, PubChem BioAssay AID1945 is where these values come from.

Assay: compounds displacing fluorescent DNA intercalator, artefact control for HCV NS3 helicase inhibitor project, biochemical, FID fluorescence, triplicate (AID 1945);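 note: 0% = vehicle and 100% = reference compound; higher means more displacement of ethidium bromide from the DNA hairpin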
Experimental context: DNA fluorescent intercalator displacement, at 7.9 µM, hits give high values
In all, about 1,600 compounds went through this assay and about 65 (4%) were called active. The list is a sample of the results.
Property: inhibition (%)

Molecule: COCCNC(=O)Nc1ccc2nc(-c3ccco3)c(-c3ccco3)nc2c1
Observed measurement: 18.2
--
Molecule: CCOC(=O)c1nnn(-c2nc(OC)nc(N(C)C)n2)c1-c1ccccc1
Observed measurement: -39.7
--
Molecule: O=C(c1cccc(-n2cccc2)c1)N1CCN(S(=O)(=O)c2ccc(F)cc2)CC1
Observed measurement: -4.45
--
Molecule: O=C(N/N=C/c1ccco1)c1csc2c1CCCC2
Observed measurement: -7.05
--
Molecule: Cc1[nH]n(C(N)=S)c(=O)c1N=Nc1ccc(Cl)cc1Cl
Observed measurement: -8.84
--
Molecule: COc1ccc(NC(=O)CSc2ccc(-c3ccco3)nn2)c(OC)c1
Observed measurement: 0.58
--
Molecule: O=C(CCl)NNc1cccc(Cl)n1
Observed measurement: 11.2
--
Molecule: CC(C)c1ccc(C2C(C(=O)c3ccco3)=C(O)C(=O)N2CC2CCCO2)cc1 (stereo not given)
Observed measurement: -21.9
--
Molecule: COc1ccccc1C1/C(=C(/O)c2ccc(OC(C)C)cc2)C(=O)C(=O)N1c1cc(C)on1 (stereo not given)
Observed measurement: -26.4
--
Molecule: CCOC(=O)c1ccccc1N1C(=O)C2Sc3[nH]c(=O)sc3C(/C=C/c3ccccc3)C2C1=O (stereo not given)
Observed measurement: -46.6
--
Molecule: CN(C)c1ccc(N/C=C/C(=O)C(F)(F)F)cc1
Observed measurement: 17.8
--
Molecule: O=c1c2c(-c3ccccc3)ccnc2[nH]n1-c1ccccc1
Observed measurement: 1.8
--
Molecule: Cc1ccc(C(=O)O)cc1-c1ccc(/C=C2\SC(=O)N(CC(=O)Nc3ccc4c(c3)OCO4)C2=O)o1
Observed measurement: 1
--
Molecule: CC1=NN(c2ccc(Cl)c(C(=O)O)c2)C(=O)/C1=C/c1ccc(-c2ccccc2[N+](=O)[O-])o1
Observed measurement: 15.8
--
Molecule: Cc1ccc(/C=C/C(=O)Nc2ccc([N+](=O)[O-])c(NC(=O)/C=C/c3ccc(C)o3)c2)o1
Observed measurement: 33.4
--
Molecule: Cc1ccc(S(=O)(=O)NCCC(c2ccccc2)c2ccccc2)cc1C(=O)O
Observed measurement: -24.5
--
Molecule: Cc1cccc(NC(=O)c2sc3nc4c(c(-c5ccco5)c3c2N)CCC4)c1
Observed measurement: -11.3
--
Molecule: c1ccc(CSc2nnc(-c3ccco3)c(-c3ccco3)n2)cc1
Observed measurement: 32.8
--
Molecule: Cc1ccc(OCC(=O)c2cc(C)n(Cc3ccco3)c2C)c([N+](=O)[O-])n1
Observed measurement: -9.01
--
Molecule: Cc1cc(O)c(C(=O)/C=C/c2c(F)c(F)c(F)c(F)c2F)c(=O)o1
Observed measurement: 3.73
--
Molecule: COc1ccc(/C=C/C(=O)c2cc(Br)ccc(=O)c2O)cc1
Observed measurement: 16.2
--
Molecule: CCOc1ccc(C(C(=O)NCCOC)N(CCOC)C(=O)CCC(=O)Nc2ccccn2)cc1 (stereo not given)
Observed measurement: -24.9
--
Molecule: CCN(CC)CCOc1ccc2c(c1)C(=NNC(=O)c1ccccn1)c1cc(OCCN(CC)CC)ccc1-2
Observed measurement: 94.3
--
Molecule: O=C1C=CC(=O)N1c1ccc(N2CCCCC2)cc1
Observed measurement: 17
--
Molecule: CCOC(=O)c1c(-c2ccccc2)oc2cc(Br)c(O)c(C=O)c12
Observed measurement: 85
--
Molecule: O=c1nc2s/c(=C\c3ccco3)c(=O)n2nc1Cc1ccccc1
Observed measurement: 7.7
--
Molecule: CSc1c(SCc2ccccc2)cnn(Cc2ccccc2)c1=O
Observed measurement: -16.1
--
Molecule: Nc1ccc2nc3c(=O)[nH]c(=S)[nH]c3nc2c1
Observed measurement: -8.12
--
Molecule: Cc1ccccc1Nc1nnc(SCC(=O)c2cc3ccccc3o2)s1
Observed measurement: -3.69
--
Molecule: S=C(NCCc1ccccc1)N1CCCCC1
Observed measurement: -0.28
--
Molecule: COc1ccccc1N1CCN(C(=O)CCS(=O)(=O)c2ccc3c(c2)NC(=O)C(C)S3)CC1 (stereo not given)
Observed measurement: -36.4
--
Molecule: NS(=O)(=O)c1ccc(-c2ccc(/C=C3\SC(=O)NC3=O)o2)cc1
Observed measurement: 1.16
--
Molecule: CC(=O)Nc1ccc(Nc2c3ccccc3nc3ccccc23)cc1
Observed measurement: 79.8
--
Molecule: Cc1ccc(C2=N/C(=C\c3ccc(OS(=O)(=O)c4ccc(C)cc4)cc3)C(=O)O2)cc1
Observed measurement: -12.6
--
Molecule: COc1ccc(OCC(=O)Nc2nnc(-c3ccco3)s2)cc1
Observed measurement: -1.45
